Taken from ChEMBL document CHEMBL3046964.

For each entry below, report its IC50 value.
- Test system: A549
- Protocol Description: Cytotoxicity against Homo sapiens (human) A549 cells assessed as growth inhibition after 48 hr by MTT assay
- Format: functional, cell-based
- Condition Context: A549, 48 h
Give bare numbers, in µM.

The examples below pair each entry with its known result.
O=C(Cc1ccc(CCCN2Cc3cc4ccccc4nc3C2=O)cc1)N1CCN(c2ccccc2)CC1 ... 65.4
O=C(Cc1ccc(/C=C/CN2Cc3cc4ccccc4nc3C2=O)cc1)N1CCN(c2ccc([N+](=O)[O-])cc2)CC1 ... 43.8

Hi, could you look up IC50 for each item in my list?
1. COc1cccc2c1C(=O)c1c(O)c3c(c(O)c1C2=O)C[C@@](O)(C(=O)CO)C[C@@H]3O[C@H]1C[C@H](N)[C@H](O)[C@H](C)O1
2. CC(C)N(C(=O)Cc1ccc(/C=C/CN2Cc3cc4ccccc4nc3C2=O)cc1)C(C)C

### Response
1: 24.3; 2: 70.1
